Reported GI50 values are given for each entry in this list.
# System: DMS-114
# test-method-notes: NCI tumour cell line growth inhibition, 48 h
Calls of active or inactive are those of the source. Cut-off read from the data, not from the text of the source: active = GI50 up to about 1.1 µM and inactive = higher.

# compound, GI50
measured = [
    ("CC(=O)OC1OC2C(NC(=O)OC(C)(C)C)C1CC2(OCc1ccccc1)OCc1ccccc1 (stereo not given)", "18.7 µM (inactive)"),
]

Give its GI50 value. Item: `CCOc1ccc2c(c1)[n+]([O-])c(-c1ccc(Cl)cc1)c(N)[n+]2[O-]`
68.7 µM (inactive)

Give its GI50 value. Item: CC1(C)OC(=O)C(=C2CCC(C(=O)Nc3cccc(C(F)(F)F)c3)N2)C(=O)O1 (stereo not given)
37.4 µM (inactive)

Give its GI50 value. Item: `N#Cc1c2ccccc2c(Cc2ccc3c(c2)OCCOCCOCCOCCOCCO3)c2ccccc12`
10.4 µM (inactive)

Give its GI50 value. Item: COC(=O)C(C(=O)c1ccccc1)C(C(=O)C(=O)Nc1ccc(OC)cc1OC)C(=O)C(=O)c1ccc(C)cc1 (stereo not given)
> 100 µM (inactive)
